Can you tell me log10 of binding signal for the items I'm about to list?
# Subject Of Test: T1, UNK ZnF1-3 (human, UniProt Q9C0B0 31-174)
# T1 sequence: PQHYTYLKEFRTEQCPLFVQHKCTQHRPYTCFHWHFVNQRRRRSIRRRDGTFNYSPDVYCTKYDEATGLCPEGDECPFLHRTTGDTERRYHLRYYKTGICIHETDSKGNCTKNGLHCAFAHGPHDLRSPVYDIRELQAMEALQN
# Protocol Summary: nsRBNS (natural sequence RNA bind-n-seq); RBNS binding buffer (assumed for nsRBNS): 25 mM Tris pH 7.5, 150 mM KCl, 3 mM MgCl2, 0.01% Triton X-100, 500 ug/ml BSA, 20 U/ml SUPERase-In, 4 C; UNK is unkempt and MSI1 is Musashi-1; names of the RNAs are library labels; protein concentration not given here; high values mean tight binding
The full ranking holds about 24,000 sequences; the median of “enrichment r” is about 0.99, and the highest 2% start at about 3.7. The list comes from a sample in which the highest values are over-represented; it also holds close analogues and randomly drawn sequences.
On a log10 scale: recorded binding signal, unit enrichment R.

# Binder, log10 of binding signal
data = [
    ("chr10:35314101:35314102:-_ENSG00000108094_ENST00000537177|hu_hu|FALSE|FALSE (ssRNA) RNA: GGGAGUUCUACAGUCCGACGAUCUUCACCUGUACACAGAUAAUGUAACCAUGUAAGUUUCCUUCCACUGAAAUGUUGGCUAUAAAAUAAUUCAAACAUCUGUACACUUUUUUCUAAUUCCUGGGGAAUUGCAAACGUAGAUGACAACAGAGGAUUGAGCAUCA", 0.05),
    ("chr7:149068622:149068623:-_ENSMUSG00000025139_ENSMUST00000001950|mus_hu|mus_mus_mus_hu_False|58_98 (ssRNA) RNA: GGGAGUUCUACAGUCCGACGAUCGUGAGGCCUCUGAGUGAGGUUCCUGGUCUGUCCUGGGUUAGAGUUGUUAAUAUCACUAAGUGGACCAUCUAGAACGUUCCAGUCCCGCCUGACACCUUCAUUCCCAAUGGAGAAGAAAUCCAACAGAGGAUUGAGCAUCA", -0.12),
    ("chr16:45382771:45382772:-_ENSMUSG00000022661_ENSMUST00000163230|mus_mus|mus_mus_mus_hu_True|1_28 (ssRNA) RNA: GGGAGUUCUACAGUCCGACGAUCCUGGGUCAUGUUAUAAGACAAAUGGACAGGGAGGGCAUGCUUCUCAAAAAAUGUGAGCUAUUGUCUAAGACUAACAAUAUUUACUAAGUGCUAAAAAUAAGUUAAAUGAAUAAACAUUACCAACAGAGGAUUGAGCAUCA", 0.52),
    ("chr16:75327710:75327711:-_ENSG00000153774_ENST00000283882|hu_hu|FALSE|FALSE (ssRNA) RNA: GGGAGUUCUACAGUCCGACGAUCAUUUAAGGACAAAUUUUUAAAAGUAAAGUGAAUGAAACCAUUUGUGAUUAAGAUACAUAGACAGAACUUCAAUGUAGAAAAAAAAAAGACCUUGCUGGGAAACAGAUGAUGAGAAACACUCAACAGAGGAUUGAGCAUCA", 0.23),
    ("chr16:45382771:45382772:-_ENSMUSG00000022661_ENSMUST00000163230|mus_mus|mus_mus_mus_hu_True|28_58 (ssRNA) RNA: GGGAGUUCUACAGUCCGACGAUCCUGGGUCAUGUUAUAAGACAAAUGGACAGGGAGGGCAUGCUUCUCAAAAAAUGUGAACUACUCUCUAAGACUAACAAUAUUUACUAAGUGCUAAAAAUAAGUUAAAUGAAUAAGUUAAGACAACAGAGGAUUGAGCAUCA", 0.59),
    ("chr7:141438946:141438947:+_ENSG00000106028_ENST00000265304|hu_mus|hu_hu_hu_mus_True|8_98 (ssRNA) RNA: GGGAGUUCUACAGUCCGACGAUCGACGAAAUACCUGACAGGUCUUCCUUCGAAACAUGGCUUCUGUUUUUCUUACAACCUAAUCUUUAGGCUUUUCCUAAAGGAAAGAAAGAAAAGAGAAAAAUGAGCAGGGGAUCAACUACACAACAGAGGAUUGAGCAUCA", -0.27),
]

Here are 7 binders. What values of log10 of binding signal were reported for them?
1. chr16:45711415:45711416:-_ENSMUSG00000022658_ENSMUST00000096057|mus_mus|FALSE|FALSE (ssRNA) RNA: GGGAGUUCUACAGUCCGACGAUCAUUAGGAUACGUUCUGUGAGUCAAGGAGAGAAACUUUUUGGCAAAUAAAUAAAUAAAUAAUCAAACAAACCAAGACCUUAGGGCACAGGAGGUCAGAGAGGAAAGGGAGUCUUUGCAUAGCAACAGAGGAUUGAGCAUCA
2. 19974894_19982776_1293_CDS_ENSMUSG00000002428_ENSMUST00000002502|mouse|control|control (ssRNA) RNA: GGGAGUUCUACAGUCCGACGAUCAAUGUACUGUACAGAAAUUUUUCUUCUCUUAGGGCAGACGCUAGACAGCUGCGACAGAGUACAGCUACUCUUCUCCGGAGUUCCUGAAAUACUGGGUUCUUCACCACACGUGGAUGACUCCAACAGAGGAUUGAGCAUCA
3. chrX:71549400:71549401:+_ENSMUSG00000019087_ENSMUST00000019231|mus_hu|mus_mus_mus_hu_False|8_58 (ssRNA) RNA: GGGAGUUCUACAGUCCGACGAUCGCAGUAGGAAGAGGGAAGCUCUUCAGUCCAGUGCGCUGCAGGGUGGGAAAGCACAACCUAGACCACCGUCCCACCCUCAACCCCCCCACUGGCACAGGGUCACAUCUGGGUCAUCAAAGACAACAGAGGAUUGAGCAUCA
4. chr16:45382771:45382772:-_ENSMUSG00000022661_ENSMUST00000163230|mus_mus|mus_mus_mus_hu_True|28_98 (ssRNA) RNA: GGGAGUUCUACAGUCCGACGAUCCUGGGUCAUGUUAUGGGCCCAAUGGACAGGGAGGGCAUGCUUCUCAAAAAAUGUGAGCUAUUGUCUAAGACUAACAAUAUUUACUAAGUGCUAAAAAUAAGUUAAAUGAAUAAGUUAAGACAACAGAGGAUUGAGCAUCA
5. 79664557_79664677_4134_CDS_ENSG00000146247_ENST00000275034|human|control|control (ssRNA) RNA: GGGAGUUCUACAGUCCGACGAUCACGGAAAGGCUCUGAAUCUUCACAUUGAAAUAUGAGAUUUAACAAUUCUUCACACUGUUUCUUCCAUGCUUGAAUAUCGUAAGACUGGGCUCUAUUACGUAAUCUUCUUCUAGGCUGAUGCAACAGAGGAUUGAGCAUCA
6. chr3:10015032:10015033:+_ENSMUSG00000027533_ENSMUST00000029046|mus_mus|mus_mus_mus_hu_True|38_48 (ssRNA) RNA: GGGAGUUCUACAGUCCGACGAUCGUUUUUACCAUCACAAGUGAUGAUACAAUCUGGCUUGGCCAUUGCGCCCAUUUUUCGCAAAGCCAGUCCUACUCCUAGCUCUUUCAUGUAUUCAUCAAAGCCUUUGCUGUCCACCAGGCGCAACAGAGGAUUGAGCAUCA
7. 6859137_6859426_438_3pUTR_ENSG00000089693_ENST00000435120|human|control|control (ssRNA) RNA: GGGAGUUCUACAGUCCGACGAUCGUCUGAAUCCCGAACAGUCCUCCGUGUCUCCCGGAUCCCGCCUGGUGCCGAGCGCAUCUCUGAUGUCUCUUGGUAGACCUUGGGGGCACCAUCACCCGUAUUGGAGUAGGAGAUGACAGUCAACAGAGGAUUGAGCAUCA

A:
1: 0.59; 2: -0.12; 3: 0.12; 4: 0.92; 5: 0.05; 6: -0.24; 7: -0.17
